Test name: Primary qHTS for inhibitors of nuclear receptor binding SET domain protein 2 (NSD2) in an isogenic RCH-ACV NSD2 p.E1099K mutant (9B) (AID 1645876); also: nearly all actives have a fitted effect of over 70% in size; also: potency is read from the fitted curve at half-maximal effect
Experimental conditions: RCH-ACV (leukaemia line) NSD2 E1099K (9B) viability, CellTiter-Glo, 72 h; series mostly up to 44.9 µM
Results filed as inconclusive are left out. Calls of active or inactive are those of the source. Calls follow the shape of the dose curve; as a rule, active = well fitted inhibition curve with a large enough effect; inconclusive = small, poorly fitted or top-dose-only effect; inactive = flat fitted curve, though single readings scatter.
Assay metric: Potency

// worked examples, Potency included
{"Compound": "CCOC(=O)C(C)Oc1cccc2c(=O)n(CC(=O)Nc3ccc4c(c3)OCCO4)ccc12 (stereo not drawn)", "Assay metric": "Potency", "Endpoint value": "inactive"}
{"Compound": "CCCCN(CCCC)CCC(O)c1cc2c(Cl)cc(Cl)cc2c2cc(C(F)(F)F)ccc12 (stereo not drawn)", "Assay metric": "Potency", "Endpoint value": "13.3 µM (active)"}
{"Compound": "Cc1cc(O)c2c(c1)C(=O)c1cc(O)cc(O)c1C2=O", "Assay metric": "Potency", "Endpoint value": "inactive"}
{"Compound": "Cc1cc(=O)c2c(O)c3c(O)cc(=O)c4c3c3c(cc(O)c1c23)C(C)(C)C=4O", "Assay metric": "Potency", "Endpoint value": "inactive"}
{"Compound": "Cc1cccc(CN2CCN(C(c3ccccc3)c3ccc(Cl)cc3)CC2)c1 (stereo not drawn)", "Assay metric": "Potency", "Endpoint value": "inactive"}
{"Compound": "COc1cc(OC)c(C(=O)CCCN2CCCC2)c(OC)c1", "Assay metric": "Potency", "Endpoint value": "inactive"}
{"Compound": "Cc1ncc([N+](=O)[O-])n1CC(C)O (stereo not drawn)", "Assay metric": "Potency", "Endpoint value": "inactive"}
{"Compound": "Nc1nc(Cl)nc2c1ncn2[C@H]1C[C@H](O)[C@@H](CO)O1", "Assay metric": "Potency", "Endpoint value": "0.0468 µM (active)"}
{"Compound": "C=C(c1ccc(C(=O)O)cc1)c1cc2c(cc1C)C(C)(C)CCC2(C)C", "Assay metric": "Potency", "Endpoint value": "inactive"}
{"Compound": "CCCc1cc(=O)[nH]c(=S)[nH]1", "Assay metric": "Potency", "Endpoint value": "inactive"}

Could you now look at the following compound, please?
Find the recorded Potency belonging to O=C(c1ccccc1)c1ccc2n1CCC2C(=O)O (stereo not drawn) and report it.
inactive

###

Tested on: JCK
Test name: qHTS profiling for inhibitors of Plasmodium falciparum proliferation (AID 504749); also: nearly all actives have a fitted effect of over 60% in size
Experimental conditions: P. falciparum in erythrocytes, SYBR Green DNA, 72 h; series mostly up to 28.7 µM
Records with an inconclusive call do not appear. Active and inactive are the calls of the source. The call rests on the fitted dose curve; in most records, active means well fitted inhibition curve with a large enough effect; inconclusive means small, poorly fitted or top-dose-only effect; inactive means flat fitted curve, though single readings scatter.
Can you answer with just one of these options? active, inactive

Use these answered entries as a reference point.
{"Compound": "C[C@H](Cn1cnc2c(N)ncnc21)OCP(=O)(O)O", "Class assignment": "inactive"}
{"Compound": "CCCc1cc(=O)[nH]c(=S)[nH]1", "Class assignment": "inactive"}
{"Compound": "CN1C(C(=O)Nc2ccccn2)=C(O)c2sccc2S1(=O)=O", "Class assignment": "inactive"}
{"Compound": "CC(C)(S)[C@@H](N)C(=O)O", "Class assignment": "inactive"}
{"Compound": "CC1=C(C)C(=O)C(C(CCCCCC(=O)O)c2ccccc2)=C(C)C1=O (stereo not drawn)", "Class assignment": "inactive"}
{"Compound": "CN(c1nccc(=O)[nH]1)C1CCN(c2nc3ccccc3n2Cc2ccc(F)cc2)CC1", "Class assignment": "inactive"}
{"Compound": "COCCCOc1ccnc(CS(=O)c2nc3ccccc3[nH]2)c1C (stereo not drawn)", "Class assignment": "inactive"}
{"Compound": "COC1=C(OC)C(=O)C(CCCCCCCCCCO)=C(C)C1=O", "Class assignment": "inactive"}
{"Compound": "CC(C)c1ccc2oc3nc(N)c(C(=O)O)cc3c(=O)c2c1", "Class assignment": "inactive"}
{"Compound": "O=C(O)c1cccc(-c2noc(-c3ccccc3F)n2)c1", "Class assignment": "inactive"}

Can you look up the reported call for CC1(C)NC(=O)N(c2ccc([N+](=O)[O-])c(C(F)(F)F)c2)C1=O for me?
inactive

Here is the next compound: O=C(O)c1cc(=O)c2c(OCC(O)COc3cccc4oc(C(=O)O)cc(=O)c34)cccc2o1
inactive

How about CCCCN(CCCC)CCC(O)c1cc2c(Cl)cc(Cl)cc2c2cc(C(F)(F)F)ccc12 (stereo not drawn) ?
active

And for CCC(C)(Oc1ccc(C2(c3ccc(OC(C)(CC)C(=O)O)cc3)CCCCC2)cc1)C(=O)O (stereo not drawn) ?
inactive

Could you do the same for Nc1ccc(S(N)(=O)=O)cc1 , please?
inactive

Next compound up: Cc1nc2n(c(=O)c1CCN1CCC(c3noc4cc(F)ccc34)CC1)CCCC2
inactive
